target: Adrenergic receptor alpha-1 (Rattus norvegicus, UniProt P15823+P23944+P43140); test: In vitro inhibitory activity was evaluated against,[3H]WB 4101 whole rat brain alpha 1-adrenoceptor
Quick list: IC50 per entry.
Value expressed in µM; do not type the unit.

The following compounds have reported results that may help.
compound: CN1CCc2cccc3c2[C@H]1Cc1ccc(O)c(O)c1-3
IC50, µM: 7.75

compound: CCCN1CC(NS(=O)(=O)N(CC)CC)CC2Cc3c(O)cccc3CC21 (stereo in doubt; -1) [QUINAGOLIDE]
IC50, µM: 6

compound: CCN(CC)S(=O)(=O)N[C@H]1C[C@@H]2c3cccc4[nH]cc(c34)C[C@H]2N(C)C1
IC50, µM: 3.3

Lookup: Entry CCCN1CC(NS(=O)(=O)N(CC)CC)CC2Cc3c(O)cccc3CC21 (racemic) [QUINAGOLIDE] : reported IC50 = ?
Found: 7.8
